biological target: cAMP-phosphodiesterase (PDE); construct: gene PDE1A; enzyme of commercial Abcam colorimetric PDE kit; assay: colorimetric PDE activity kit ab139460, plate reader […] nm; assay type: biochemical; conditions: two-range dilution, measuring error 10%, isoenzyme not told, control from kit, read-out: IC50 **^1
quantityName: IC50

# query: IC50 of entry CC(C)Cn1c(=O)n(C)c(=O)c2[nH]cnc21
5 µM

---

biological target: cAMP-phosphodiesterase (PDE); construct: gene PDE1A; enzyme of commercial Abcam colorimetric PDE kit; assay: colorimetric PDE activity kit ab139460, plate reader […] nm; assay type: biochemical; conditions: two-range dilution, measuring error 10%, isoenzyme not told, read-out: IC50 **^1
quantityName: IC50 (µM)
Just the number please, in µM, no unit attached.

# query: IC50 of entry OCCN(CCO)c1nc(N2CCCCC2)c2nc(N(CCO)CCO)nc(N3CCCCC3)c2n1 [10 (D10)]
5
